tested on: NOMO1; assay: cell viability relative to DMSO control; higher = less cytotoxic; details: RPMI 5 mM glucose + 10% dialyzed FBS; 48 h; 0.0632 µM
Consider the following compounds; for each one, report its cell viability.
State just the number; it will be interpreted in %.

q: Provide measured cell viability value, entry: CC[C@@H]([C@H](C)O)n1ncn(-c2ccc(N3CCN(c4ccc(OCC5CO[C@@](Cn6cncn6)(c6ccc(F)cc6F)C5)cc4)CC3)cc2)c1=O (some centres not stated)
a: 93.6

q: Provide measured cell viability value, entry: `CC12CC3CC(C)(C1)CC(N)(C3)C2`
a: 116

q: Provide measured cell viability value, entry: `CN(C)CC(C)(C)CNc1nn2c(-c3ccccc3)nnc2cc1C1CCC1`
a: 102

q: Provide measured cell viability value, entry: `C[C@]12CC[C@H]3[C@@H](CCC4=CC(=O)CC[C@@H]43)[C@@H]1CC[C@@H]2OC(=O)CCc1ccccc1`
a: 141

q: Provide measured cell viability value, entry: `N[C@@H]1CONC1=O`
a: 99.3

q: Provide measured cell viability value, entry: `CNc1nc(Nc2cnn([C@H]3CCN(C4COC4)C[C@@H]3F)c2Cl)ncc1C(F)(F)F`
a: 118

q: Provide measured cell viability value, entry: `Cc1cccc(Nc2ccncc2[S+](=O)([O-])NC(=O)NC(C)C)c1`
a: 93.6

q: Provide measured cell viability value, entry: CCCCN(CCCC)CC(O)c1cc(Cl)cc2c1-c1ccc(Cl)cc1/C2=C/c1ccc(Cl)cc1 (configuration not stated)
a: 99.4

q: Provide measured cell viability value, entry: `CCCCCCCCCCCCCC(=O)N[C@H](CO)[C@H](O)c1ccc([N+](=O)[O-])cc1`
a: 92.2

q: Provide measured cell viability value, entry: `CCOC(=O)\C1=C\[C@]2(CC)CCCN3CCC4=C([C@H]23)[N]1C5=C4C=CC=C5`
a: 108

q: Provide measured cell viability value, entry: `NC(=O)c1ccc(N(C(N)=O)c2c(F)cccc2F)nc1-c1ccc(F)cc1F`
a: 85.4

q: Provide measured cell viability value, entry: `Oc1nc(-c2ccc(C(F)(F)F)cc2)nc2c1CSCC2`
a: 98.1

----------
system: P12-Ichikawa; experiment: cell viability relative to DMSO control; higher = less cytotoxic; settings: HPLM + 10% dialyzed FBS; 48 h; 15.4 µM
propertyName: cell viability (%)
State just the number; it will be interpreted in %.

q: Provide measured cell viability value, entry: CCCCN(CCCC)CC(O)c1cc(Cl)cc2c1-c1ccc(Cl)cc1/C2=C/c1ccc(Cl)cc1 (stereo unspecified)
a: 121

q: Provide measured cell viability value, entry: `CC(C)OC(=O)[C@H](C)N[P@](=O)(OC[C@H]1O[C@@H](N2\C=C/C(=O)NC2=O)[C@](C)(F)[C@@H]1O)OC3=CC=CC=C3`
a: 6.42

q: Provide measured cell viability value, entry: `COC(=O)c1ccc2c(c1)NC(=O)/C2=C(\Nc1ccc(N(C)C(=O)CN2CCN(C)CC2)cc1)c1ccccc1`
a: 95.9

q: Provide measured cell viability value, entry: COc1ccc2c(c1)[C@]13CCCCC1C(C2)N(C)CC3 (stereo partly specified)
a: 127

q: Provide measured cell viability value, entry: `CNC(=O)c1ccc(Nc2cc(Nc3ccccc3[S+](=O)([O-])C(C)C)c3cc[nH]c3n2)nc1`
a: 10.6

q: Provide measured cell viability value, entry: `NC[C@H]1O[C@H](O[C@@H]2[C@H](O)[C@@H](O[C@H]3O[C@H](CO)[C@@H](O)[C@H](N)[C@H]3O)[C@H](N)C[C@@H]2N)[C@H](O)[C@@H](O)[C@@H]1O`
a: 104

q: Provide measured cell viability value, entry: `C[C@@H](CN1CC(=O)NC(=O)C1)N1CC(=O)NC(=O)C1`
a: 4.45

q: Provide measured cell viability value, entry: `COc1cc[nH]c2ncc(C(=O)C(=O)N3CCN(C(=O)c4ccccc4)C[C@H]3C)c1-2`
a: 103

q: Provide measured cell viability value, entry: `Oc1nc(-c2ccc(C(F)(F)F)cc2)nc2c1CSCC2`
a: 91.5

q: Provide measured cell viability value, entry: `COc1cc(C(=O)N2CC[C@@H](O)[C@@H](N)C2)cc2nc(-c3cc4ccccc4n3CC3CC3)n(C)c12`
a: 23.8

q: Provide measured cell viability value, entry: `COC1=CC=C(C(=C1)OC(C)C)C/2=N/[C@@H]([C@@H](N2C(=O)N3CCNC(=O)C3)C4=CC=C(Cl)C=C4)C5=CC=C(Cl)C=C5`
a: 37.1

q: Provide measured cell viability value, entry: `CN1CCCN(CC1)C2=CC=C3C(=O)\C(=C/4SC5=C(C=CC=C5)N4C3=N2)C(=O)NCC6=CN=C(C)C=N6`
a: 92.4

q: Provide measured cell viability value, entry: O=C(c1ccccc1)c1ccc2n1CCC2C(=O)O (stereo unspecified)
a: 64.6

q: Provide measured cell viability value, entry: `C[C@@H]1CCO[C@H]2CN\3/C=C(/C(=O)NCC4=C(F)C=C(F)C=C4)C(=O)\C(=C3C(=O)N12)O`
a: 104

q: Provide measured cell viability value, entry: CCCCCNC(=O)N1CCC(CN(Cc2ccc(Cl)cc2)Cc2ccc([N+](=O)[O-])s2)C1 (stereo unspecified)
a: 96.9

q: Provide measured cell viability value, entry: `CN1\C=N/C2=CC=C(NC3=CC(=CC=C3C)NC(=O)C4=CC(=CC=C4)C(C)(C)C#N)C=C2C1=O`
a: 69.3

Cited source: the supplement of paper PMC11451515
